Assay: PK profile, IV plasma concentration and PK parameters
Assay type: in vivo
Settings: Balb/C nude, mouse, iv, 5 mg/kg, 30% Kolliphore EL with 1% poloxamar 407 in water, read-out: AUC0-t
// reported AUC(0-t) for each item listed
readout.label: AUC(0-t) (ng·h/mL)

> print(dat)
                                smiles.repr  readout.label  scale.unit  observed.value
1  CCCC[C@H]1Cc2c([nH]c3ccccc23)[C@H](c2ccc(NC34CC5CC(CC(C5)C3)C4)cc2)N1C(=O)CCl       AUC(0-t)     ng·h/mL            6540
2  CCCC[C@H]1Cc2c([nH]c3ccccc23)[C@H](c2ccc(S(=O)(=O)NC3CC3)cc2F)N1C(=O)CCl       AUC(0-t)     ng·h/mL             760
3  C#CC(=O)N1[C@@H](CCCC)Cc2c([nH]c3ccccc23)[C@@H]1c1ccc(NC23CC4CC(CC(C4)C2)C3)cc1       AUC(0-t)     ng·h/mL           17200
4  C[C@H]1Cc2c([nH]c3ccccc23)[C@H](c2ccc(NC34CC5CC(CC(C5)C3)C4)cc2)N1C(=O)CCl       AUC(0-t)     ng·h/mL             735

###

System: BPH1
Test: Cell proliferation assay, prostate cancer cell line BPH1
Type: cell-based
Settings: Homo sapiens, BPH-1
Description: Cell viability assay was performed to assess the potency of the compounds in human cancer cell lines 786-O (renal cell carcinoma) and SJSA-1 (osteosarcoma). […]
pIC50: −log10 of the molar value.
readout.label: pIC50

> print(dat)
                                smiles.repr  target.under.test  readout.label  observed.value
1  CCCC[C@H]1Cc2c([nH]c3ccccc23)[C@H](c2ccc(N3CCOCC3)cc2)N1C(=O)CCl               BPH1          pIC50            6.69

###

Assay: Whole blood stability, mouse
Format: in vitro ADME
Details: 60 min
readout.label: Whole Blood Stability % Remaining at 37° C. Mouse (%)

> print(dat)
                                    compound  observed.value
 1  COC[C@H]1Cc2c([nH]c3ccccc23)[C@H](c2ccc(C(=O)OC(C)(C)C)cc2)N1C(=O)CCl [Compound 63]           108.4
 2  COC(=O)[C@H]1Cc2c([nH]c3ccccc23)[C@H](c2ccc(C(=O)OC(C)(C)C)cc2)N1C(=O)CCl [Compound 1]            46.6
 3  CN(C)C(=O)[C@H]1Cc2c([nH]c3ccccc23)[C@H](c2ccc(C(=O)N(CCC(=O)OC(C)(C)C)C(C)(C)C)cc2)N1C(=O)CCl [Compound 54]            13.8
 4  CN(C)C(=O)c1ccc([C@@H]2c3sc4ccccc4c3C[C@H](C(=O)N(C)C)N2C(=O)CCl)cc1 [Compound 55a]            60.4
 5  CN(C)C(=O)c1ccc([C@H]2c3sc4ccccc4c3C[C@H](C(=O)N(C)C)N2C(=O)CCl)cc1 [Compound 55]            24.6
 6  CC(C)(C)OC(=O)c1ccc([C@H]2c3[nH]c4ccccc4c3C[C@H](CO)N2C(=O)CCl)cc1 [Example 63a]             0.0
 7  CN(C)C(=O)[C@H]1Cc2c([nH]c3ccccc23)[C@H](c2ccc(S(=O)(=O)C(C)(C)C)cc2)N1C(=O)CCl [Compound 68]            36.9
 8  CC(C)OC(=O)[C@H]1Cc2c([nH]c3ccccc23)[C@H](c2ccc(C(=O)OC(C)(C)C)cc2)N1C(=O)CCl [Compound 20]            19.1
 9  CN(C)C(=O)[C@H]1Cc2c([nH]c3ccccc23)[C@H](c2ccc(NC(=O)OC(C)(C)C)cc2)N1C(=O)CCl [Compound 56]            38.9
10  C[C@H]1Cc2c([nH]c3ccccc23)[C@H](c2ccc(NCC3CC3)cc2)N1C(=O)CCl [Compound 116]            67.1
11  CN(C)C(=O)[C@H]1Cc2c([nH]c3ccccc23)[C@H](c2ccc(C(=O)NC[Si](C)(C)C)cc2)N1C(=O)CCl [Compound 66]            26.8
12  COC(=O)c1ccc([C@H]2c3[nH]c4ccccc4c3C[C@H](C)N2C(=O)CCl)cc1 [Compound 77]             0.0
13  COC(=O)c1ccc([C@@H]2c3[nH]c4ccccc4c3C[C@H](C)N2C(=O)CCl)cc1 [Example 77a]             0.0
14  CN(C)C(=O)[C@H]1Cc2c([nH]c3ccccc23)[C@H](c2ccc(C(=O)OC(C)(C)C)cc2)N1C(=O)CCl [Compound 21]             3.2

###

Experiment: PK profile, IV plasma concentration and PK parameters
Assay type: in vivo
Details: Balb/C nude, mouse, iv, 5 mg/kg, 30% Kolliphor EL in water (Table 10b)
Protocol: The PK profiles of compounds 148, 149, 150, 156 and 169 are shown below. Compound 156 was formulated in 30% Kolliphor EL (Cremophor EL) in water and compounds 148, 149, 150 and 169 were formulated in 30% Kolliphore EL with 1% poloxamar 407 in water. All compounds were dosed at 5 mg/kg. Blood samples were collected at various time points and analyzed using the method described above.
readout.label: half-life (h)

> print(dat)
                                smiles.repr  observed.value
1  C#CC(=O)N1[C@@H](CCCC)Cc2c([nH]c3c(F)cc(F)cc23)[C@@H]1c1ccc(F)cc1               3

###

// reported IC50 for each item listed
System: SJSA-1
Experiment: Cell viability assay (CellTiter Glo), osteosarcoma SJSA-1
Format: cell-based
Conditions: Homo sapiens, 96 hours
readout.label: IC50 (µM)

> print(dat)
                                smiles.repr  target.under.test  readout.label  observed.value
1  COC(=O)[C@H]1Cc2c([nH]c3ccccc23)[C@H](c2ccc(C(=O)OC(C)(C)C)cc2)N1C(=O)CCl             SJSA-1           IC50           0.018
2  COC(=O)[C@H]1Cc2c([nH]c3ccccc23)[C@H](c2ccc(C(=O)NCCN3CCOCC3)cc2)N1C(=O)CCl             SJSA-1           IC50            1.41
3  COC(=O)[C@H]1Cc2c([nH]c3ccccc23)[C@H](c2ccc(S(=O)(=O)N(C)C)cc2)N1C(=O)CCl             SJSA-1           IC50            0.09
4  CNS(=O)(=O)c1ccc([C@H]2c3[nH]c4ccccc4c3C[C@H](C(=O)OC)N2C(=O)CCl)cc1             SJSA-1           IC50           0.202

###

Tested on: SJSA-1
Test: Cell proliferation (Alamar Blue) assay, SJSA-1 osteosarcoma, with/without ferrostatin
Format: cell-based, human
Details: Homo sapiens, SJSA-1, Cell Line SJSA-1; read-out: IC50
Experimental: Cell viability assay was performed to assess the potency of the compounds in human cancer cell lines 786-O (renal cell carcinoma) and SJSA-1 (osteosarcoma). […] Cells (SJSA-1, 786-O and A431) were seeded (5000 cells/100 μL/well) in 96-well tissue culture plate and incubated at 37° C./5% CO2 for 16-24 hours. […] The plates were read on fluorescence reader at 540 nm excitation and 590 nm emission wavelengths. […]
readout.label: IC50 (nM)

> print(dat)
                                   molecule  readout.label  comparison.sign  observed.value
1  C=C(C(=O)N1[C@@H](c2ccc(N3CCOCC3)cc2)c2[nH]c3ccccc3c2C[C@@H]1C)C(F)(F)F           IC50                >           10000
2  CC1CN(c2ccc([C@H]3c4[nH]c5ccccc5c4C[C@H](C)N3C(=O)CCl)cc2)CCO1 (stereo partly shown)           IC50                =              28
3  C[C@H]1Cc2c([nH]c3ccccc23)[C@H](c2ccc(S(=O)(=O)NC3CCNCC3)cc2)N1C(=O)CCl           IC50                =            1400
4  COc1ccc2[nH]c3c(c2c1)C[C@H](C)N(C(=O)CCl)[C@H]3c1ccc(N2CCOCC2)cc1           IC50                =             108
